Molecular target: 293T-Dual hSTING-R232 cells (Homo sapiens, UniProt Q86WV6, H232R)
Construct: host or cells: 293T-Dual hSTING-R232 cells (HEK 293T)
Sequence (Q86WV6 whole entry H232R): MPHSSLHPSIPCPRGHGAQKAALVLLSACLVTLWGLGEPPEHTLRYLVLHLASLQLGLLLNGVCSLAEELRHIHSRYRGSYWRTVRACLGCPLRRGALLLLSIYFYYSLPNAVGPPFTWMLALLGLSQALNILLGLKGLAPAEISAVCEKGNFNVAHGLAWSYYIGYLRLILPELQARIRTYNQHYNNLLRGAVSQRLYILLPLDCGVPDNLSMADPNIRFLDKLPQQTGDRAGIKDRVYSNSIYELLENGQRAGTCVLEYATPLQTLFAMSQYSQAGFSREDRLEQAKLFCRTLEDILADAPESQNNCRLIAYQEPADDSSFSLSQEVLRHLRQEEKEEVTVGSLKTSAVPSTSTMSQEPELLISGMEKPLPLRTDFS
Experiment: 293T R232 cell reporter assay (HEK 293T reporter assay)
Assay type: cell-based
Settings: EC50 [μM] IRF reporter, digitonin 10 μg/mL, 30 min exposure, 20 h incubation, alkaline phosphatase reporter
test-readout: EC50

>>> endpoint_value("Nc1nc2c(nnn2[C@@H]2O[C@@H]3CO[P@@](=O)([S][Na])O[C@H]4[C@@H](O)[C@H](n5cnc6c(N)ncnc65)[C@H]5C[C@@]54COP(=O)(O)O[C@@H]2[C@@H]3O)c(=O)[nH]1 [Compound 1-34b]")
"0.25 to 100 µM"
>>> endpoint_value("Nc1nc2c(ncn2[C@@H]2O[C@@H]3CO[P@@](=O)([S][Na])O[C@H]4[C@@H](O)[C@H](n5cnc6c(N)ncnc65)[C@H]5C[C@]54COP(=O)(O)O[C@@H]2[C@@H]3F)c(=O)[nH]1 [Compound 1-22a]")
"0.25 to 100 µM"
>>> endpoint_value("Nc1nc2c(ncn2[C@H]2[C@@H]3OP(=O)(O)OC[C@]45C[C@@H]4[C@@H](n4cnc6c(N)ncnc64)[C@H](O)[C@@H]5O[P@](=O)([S][Na])OC[C@@]4(C[C@H]24)[C@H]3O)c(=O)[nH]1 [Compound 1-37]")
"0.25 to 100 µM"
>>> endpoint_value("Nc1nc2c(ncn2[C@H]2[C@H](O)[C@@H]3OP(=O)(O)OC[C@]45C[C@@H]4[C@@H](n4cnc6c(N)ncnc64)[C@H](O)[C@@H]5O[P@](=O)([S][Na])OC[C@@]34C[C@H]24)c(=O)[nH]1 [Compound 1-38a]")
"> 100 µM"

* * *

Target: 293T-Dual hSTING-R232 cells (Homo sapiens, UniProt Q86WV6, H232R)
Construct: host or cells: 293T-Dual hSTING-R232 cells (HEK 293T)
Experiment: 293T R232 cell reporter assay (HEK 293T reporter assay)
Format: cell-based
Settings: digitonin 10 μg/mL, 30 min exposure, 20 h incubation, alkaline phosphatase reporter, read-out: EC50 [μM] IRF reporter
Description: 293T-Dual hSTING-R232 cells (Invivogen) were plated in 96 well plates at a density of 5×10^4 cells per well in DMEM supplemented with 10% FBS, 1% Pen-Strep, 1% non-essential amino acids, 1% glutamine, and 1% HEPES. Assay setup took place after allowing cells to adhere for 48 h. […] IFN-beta expression and activation of the interferon regulatory factor (IRF) were measured based on luciferase and alkaline phosphatase reporter activity, respectively. Cell viability was determined in parallel.
test-readout: EC50

>>> endpoint_value("Nc1ncnc2c1ncn2C1OC2COP(=O)(S)OC3C(O)C(n4cnc5c(N)ncnc54)C4CC43COP(=O)(S)OC1C2O (centres unmarked) [Compound 1-14c]")
"0.25 to 100 µM"
>>> endpoint_value("Nc1nc2c(ncn2[C@@H]2O[C@@H]3CO[P@](=O)([S][Na])O[C@H]4[C@@H](O)[C@H](n5cnc6c(N)ncnc65)[C@H]5C[C@]54COP(=O)([O-])O[C@@H]2[C@@H]3F)c(=O)[nH]1.[Na+] [Compound 1-22b]")
"< 0.25 µM"
>>> endpoint_value("CO[C@H]1[C@H]2OP(=O)([O-])OC[C@@]34C[C@@H]3[C@@H](n3cnc5c(N)ncnc53)[C@H](O)[C@@H]4OP(=O)([O-])OC[C@H]1O[C@H]2n1cnc2c(=O)[nH]c(N)nc21.[Na+].[Na+]")
"< 0.25 µM"
>>> endpoint_value("Nc1nc2c(ncn2[C@H]2[C@H](O)[C@@H]3OP(=O)(O)OC[C@H]4C[C@@H](n5cnc6c(N)ncnc65)[C@H](O)[C@@H]4OP(=O)(O)OC[C@@]34C[C@H]24)c(=O)[nH]1")
"0.25 to 100 µM"
>>> endpoint_value("COC1C2COP(=O)(S)OC3C(O)C(n4cnc5c(N)ncnc54)C4CC43COP(=O)(S)OC1C(n1cnc3c(=O)[nH]c(N)nc31)O2 (single isomer, unassigned) [Compound 1-6b]")
"0.25 to 100 µM"
